Data provenance: patent US20220313698A1

- ASSAY_SYSTEM: CFTR-mediated chloride transport (Homo sapiens)
- MEASUREMENT_NOTES: Corrector Assay A - membrane potential dye assay (enteroid cells)
- TEST_SETTINGS: read-out: Corrector Assay A EC50; human intestinal enteroid cells, 18-24 h incubation; acute 10 μM forskolin + 300 nM ivacaftor
ASSAY_ENDPOINT: EC50

Worked cases, EC50 given:
- COMPOUND: "CC1(C)CC=C(c2ccc3c(n2)N2C[C@@H](CC[C@H](c4ccccn4)Nc4cccc(n4)S(=O)(=O)NC3=O)CC2(C)C)CC1 [Compound 327]"
  ASSAY_VALUE: "< 1000 nM"
- COMPOUND: "CC(C)(C)c1ccc2c(n1)N1C[C@@H](CCC(c3ccncc3)Nc3cccc(n3)S(=O)(=O)NC2=O)CC1(C)C (single isomer, unassigned) [Compound 232]"
  ASSAY_VALUE: "< 1000 nM"

Query block: For CC1(C)CC2CCC(c3ccccc3)Nc3cccc(n3)S(=O)(=O)NC(=O)c3ccc(-n4ccc(OCCC5(C(F)(F)F)CC5)n4)nc3N1C2 (single isomer, unassigned) [Compound 384] , what is its reported EC50?
Result block: < 1000 nM
